Measured Drug release by item
Species on record: Rattus norvegicus
procedure_details: Lysozyme-conjugated prodrugs: in vitro stability at pH 5
Assay type: ADME

molecule | Drug release
COc1ccc2c(c1)c(CC(=O)N[C@@H](Cc1ccccc1)C(=O)O)c(C)n2C(=O)c1ccc(Cl)cc1 | 0%
CC(C)C[C@H](N)C(=O)Nc1nc2nc(N)nc(N)c2nc1-c1ccccc1 | 0%
COc1ccc2cc(C(C)C(=O)NC(CC(C)C)C(=O)O)ccc2c1 (centres undefined) | < 1%
COc1ccc2cc(C(C)C(=O)NC(Cc3ccc(O)cc3)C(=O)O)ccc2c1 (centres undefined) | < 1%
CC(C)C[C@H](N)C(=O)Nc1nc(N)nc2nc(N)c(-c3ccccc3)nc12 | 0%
COc1ccc2cc(C(C)C(=O)N[C@@H](CC(C)C)C(=O)NCC(=O)NCC(=O)O)ccc2c1 (stereo in doubt; 1o) | 0%
CC(C)C[C@H](NC(=O)c1ccccc1)C(=O)O | 0%
COc1ccc2c(c1)c(CC(=O)N[C@@H](CC(C)C)C(=O)O)c(C)n2C(=O)c1ccc(Cl)cc1 | 0%

Continue with the molecule presented below.
Challenge: Please supply the value of reported Drug release for the item O=C(N[C@@H](Cc1ccccc1)C(=O)O)c1ccccc1
Response given: 0%

* * *

Measured Drug release by item
Organism: Rattus norvegicus
procedure_details: Lysozyme-conjugated prodrugs: in vitro stability at pH 7.4
Assay type: functional
Numbers only here, please. The scale is %.

compound | Drug release / %
COc1ccc2cc([C@H](C)C(=O)O)ccc2c1 | 0

Continue with the compound presented below.
Challenge: Please supply the value of reported Drug release for the item C[C@@H](NC(=O)C(Cc1ccccc1)NC(=O)OCc1ccccc1)C(=O)O (some centres undefined)
Response given: 100

* * *

Species on record: Rattus norvegicus
procedure_details: Lysozyme-conjugated prodrugs: in vitro stability at pH 7.4
Assay type: functional
Square brackets hold non-standard residues; d marks the D form. Peptide text beside a SMILES is read from it. * marks the point of attachment. ξ: configuration not given here. βNA = c1ccc2cc(N*)ccc2c1; Cbz = O=C(OCc1ccccc1)*; ξP = O=C(O)C1CCCN1
Lab note: cut-off is 8%. Strictly less in Drug release is 1. Exactly 8% or more is 0.

molecule | answer_label
O=C(N[C@@H](Cc1ccccc1)C(=O)O)C1CCCN1C(=O)OCc1ccccc1 (some centres undefined) (Cbz-[ξP]-Phe-OH) | 0
COc1ccc2cc(C(C)C(=O)OCC(=O)O)ccc2c1 (centres undefined) | 1
COc1ccc2cc(C(C)C(=O)NC(CC(C)C)C(=O)O)ccc2c1 (centres undefined) | 1
COc1ccc2cc(C(C)C(=O)O[C@@H](C)C(=O)O)ccc2c1 (stereo in doubt; 1r) | 1

Challenge: # TODO verify Drug release < 8% strictly for this molecule: COc1ccc2cc(C(C)C(=O)NCCCC[C@H](N)C(=O)O)ccc2c1 (some centres undefined)
Response given: 1

Challenge: # TODO verify Drug release < 8% strictly for this molecule: CC(C)C[C@H](N)C(=O)Nc1ccc2ccccc2c1
Response given: 0

Challenge: # TODO verify Drug release < 8% strictly for this molecule: COc1ccc2cc(C(C)C(=O)N[C@@H](CC(C)C)C(=O)NCC(=O)NCC(=O)O)ccc2c1 (stereo in doubt; 1c)
Response given: 1

Challenge: # TODO verify Drug release < 8% strictly for this molecule: NCC(=O)N[C@@H](Cc1ccccc1)C(=O)Nc1ccc2ccccc2c1 (H-Gly-Phe-βNA)
Response given: 0

// data source = ChEMBL document CHEMBL1125422
